# Target under test: Fyn (UniProt P06241)
# Sequence (P06241 whole entry, looked up): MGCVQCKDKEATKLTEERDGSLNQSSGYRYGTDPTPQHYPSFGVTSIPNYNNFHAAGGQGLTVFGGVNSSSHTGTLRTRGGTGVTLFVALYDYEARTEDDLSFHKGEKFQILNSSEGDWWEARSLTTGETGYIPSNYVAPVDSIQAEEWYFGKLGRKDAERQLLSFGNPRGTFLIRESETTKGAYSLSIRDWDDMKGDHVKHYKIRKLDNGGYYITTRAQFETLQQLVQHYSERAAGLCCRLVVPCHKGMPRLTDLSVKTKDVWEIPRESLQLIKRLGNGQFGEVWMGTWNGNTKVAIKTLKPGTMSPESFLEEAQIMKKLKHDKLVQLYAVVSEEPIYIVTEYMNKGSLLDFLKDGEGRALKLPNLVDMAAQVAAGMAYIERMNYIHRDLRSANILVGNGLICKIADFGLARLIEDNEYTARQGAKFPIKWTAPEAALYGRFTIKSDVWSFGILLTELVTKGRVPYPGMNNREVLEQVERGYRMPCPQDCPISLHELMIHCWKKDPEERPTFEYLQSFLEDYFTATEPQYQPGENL
# Experiment: phosphorylation enrichment, bacterial display (enrichment ratio); higher = better substrate or ligand; peptides without Tyr show the background
Experimental endpoint: phosphorylation enrichment
Just the number, please, no unit after it.

{"Macromolecule sequence": "GFILMYDITNE [RAB3C_Y110]", "phosphorylation enrichment": 0.526}
{"Macromolecule sequence": "LRGEDCGFSVD [PRKCI_Y430_Y430C]", "phosphorylation enrichment": 0.631}
{"Macromolecule sequence": "QRIFQYIQSRF [DYRK1B_Y273_YF]", "phosphorylation enrichment": 0.502}
{"Macromolecule sequence": "FKIFLYTLNDN [FN1_Y1975_YF]", "phosphorylation enrichment": 0.584}
{"Macromolecule sequence": "VMTVDYSKTVV [SETD2_Y770]", "phosphorylation enrichment": 0.451}

Returns the measured phosphorylation enrichment for the input sequence. Input: QITQVYGFFHE [PPP2CA_Y127_D131H_YF]
17.8

Quick one: phosphorylation enrichment of PLDGEHFTLQI [TP53_Y327_Y327H] ?
0.668

phosphorylation enrichment lookup needed for GKFHMYVAVWT [F13A1_Y161_R159H] , thanks.
0.407

Need phosphorylation enrichment, item GLGVTYEQALA [MAP2_Y996]
0.464

Which phosphorylation enrichment is reported for this sequence? SRASYYRKGGC [ALK_Y1283_Y1278S]
0.38

Query (sequence): VSYDEYRYRSF [CFTR_Y515_V520F] ; field requested: phosphorylation enrichment
0.548

# get_value(readout='phosphorylation enrichment', item= FDNPVYQKTTE [LDLR_Y828] )
0.759

====

Reported values of phosphorylation enrichment for individual entries
# Tested on: c-Src
# Experiment: phosphorylation enrichment, bacterial display (enrichment ratio); higher = better substrate or ligand; peptides without Tyr show the background

Examples with answers:
{"Macromolecule sequence": "KDHLDYKFQPR [SOX9_Y172_P170L_YF]", "Experimental endpoint": "phosphorylation enrichment", "Result": 0.504}
{"Macromolecule sequence": "GGRKGYGGFSR [RECQL5_Y478_D480G]", "Experimental endpoint": "phosphorylation enrichment", "Result": 0.487}

Could you share which phosphorylation enrichment value was measured for KMGNIYRTEYG [MRPL3_Y265] ?
0.536

Entry KDFTIYNPNLL [VANGL1_Y290] : reported phosphorylation enrichment = ?
1.2

Suppose we examine the sequence PVDNLYAEPAV [PRPS1_Y146] ; what phosphorylation enrichment value has been reported?
1.56

Record request: phosphorylation enrichment value, item SVVVCYEPPEV [TP53_Y220_P219C]
0.518

Find the recorded phosphorylation enrichment belonging to EHTILYSNNST [KANSL1_Y223_T221I] and report it.
0.547

Please give the measured phosphorylation enrichment for this sequence: NTGNFYDLFGG [PTPN11_Y63_D61N_YF]
4.88

Param item = TKDTFHKQPMF [GBA_Y451_Y451H] ; retrieve measured phosphorylation enrichment.
0.459

Requested field: phosphorylation enrichment. Item: SKDQICPMKLK [RANBP17_Y823_Y823C]
0.505

What does the data say about its phosphorylation enrichment? Entry: EEVKAYLDFGE [CHAC2_Y78_R82G]
0.574

====

# Tested on: c-Src
# Experiment: phosphorylation enrichment, bacterial display (enrichment ratio); higher = better substrate or ligand; peptides without Tyr show the background
Response key: MET means phosphorylation enrichment >= 0.6; NOT MET means phosphorylation enrichment < 0.6.

Completed entries (count: 4):
{"Macromolecule sequence": "FGSSSYGGAGG [RPA2_Y14_YF]", "Assigned label": "NOT MET"}
{"Macromolecule sequence": "VFFDLYGGEKF [PTPN11_Y66_D61V_YF]", "Assigned label": "MET"}
{"Macromolecule sequence": "AGQEEYSAMRD [HRAS_Y64]", "Assigned label": "NOT MET"}
{"Macromolecule sequence": "KQMEQYMSFHK [HCN1_Y417_V414M]", "Assigned label": "MET"}

Check this sequence for phosphorylation enrichment at or above 0.6: NIRKKYYRAIL [CHD7_Y1217_Q1214R]
NOT MET

Is the recorded value of phosphorylation enrichment equal to or greater than 0.6 for this sequence? LLKNMYLMLDN [STAT1_Y203_K201N]
MET

Could you tell me if the measured phosphorylation enrichment of FEPWVYSLSYE [PRKDC_Y647_F649L] reaches 0.6 or more?
MET

====

# Target under test: Grb2 SH2 (UniProt P62993)
# Sequence (P62993 whole entry, looked up): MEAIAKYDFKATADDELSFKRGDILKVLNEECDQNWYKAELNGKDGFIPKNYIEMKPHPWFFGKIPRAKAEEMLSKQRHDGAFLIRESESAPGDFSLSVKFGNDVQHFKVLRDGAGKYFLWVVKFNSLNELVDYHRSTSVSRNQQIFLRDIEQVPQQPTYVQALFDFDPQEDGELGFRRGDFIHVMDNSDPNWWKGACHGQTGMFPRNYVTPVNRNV
# Experiment: SH2 binding enrichment of the phosphorylated peptide, bacterial display (enrichment ratio); higher = better substrate or ligand; peptides without Tyr show the background
Experimental endpoint: SH2 binding enrichment
API note: the answer field is a bare number with no unit suffix.

{"Macromolecule sequence": "GIPIQYPIISE [NOG_Y222_W217G]", "Target under test": "Grb2 SH2 (UniProt P62993)", "SH2 binding enrichment": 0.847}
{"Macromolecule sequence": "SEPDLYCDPRG [PKP1_Y160]", "Target under test": "Grb2 SH2 (UniProt P62993)", "SH2 binding enrichment": 1.03}
{"Macromolecule sequence": "KNSFKYFMSDD [ATRX_Y203_C200S_YF]", "Target under test": "Grb2 SH2 (UniProt P62993)", "SH2 binding enrichment": 0.942}
{"Macromolecule sequence": "PSELFYSKIGP [SMG1_Y2254_YF]", "Target under test": "Grb2 SH2 (UniProt P62993)", "SH2 binding enrichment": 1.03}

What measured SH2 binding enrichment goes with DVLEFCNSKKT [PAK1_Y131_Y131C] ?
1

Given the sequence QEIATCRRLLE [KRT14_Y415_Y415C] , what is its reported SH2 binding enrichment?
0.908

Form field: reported SH2 binding enrichment of AFDNLYYWDQD [ERBB2_Y1221]
0.807

What value of SH2 binding enrichment has been reported for the following sequence? LLASRYDSPIN [ABLIM1_Y638]
0.704

====

# Target under test: Jak2 (UniProt O60674)
# Sequence (O60674 whole entry, looked up): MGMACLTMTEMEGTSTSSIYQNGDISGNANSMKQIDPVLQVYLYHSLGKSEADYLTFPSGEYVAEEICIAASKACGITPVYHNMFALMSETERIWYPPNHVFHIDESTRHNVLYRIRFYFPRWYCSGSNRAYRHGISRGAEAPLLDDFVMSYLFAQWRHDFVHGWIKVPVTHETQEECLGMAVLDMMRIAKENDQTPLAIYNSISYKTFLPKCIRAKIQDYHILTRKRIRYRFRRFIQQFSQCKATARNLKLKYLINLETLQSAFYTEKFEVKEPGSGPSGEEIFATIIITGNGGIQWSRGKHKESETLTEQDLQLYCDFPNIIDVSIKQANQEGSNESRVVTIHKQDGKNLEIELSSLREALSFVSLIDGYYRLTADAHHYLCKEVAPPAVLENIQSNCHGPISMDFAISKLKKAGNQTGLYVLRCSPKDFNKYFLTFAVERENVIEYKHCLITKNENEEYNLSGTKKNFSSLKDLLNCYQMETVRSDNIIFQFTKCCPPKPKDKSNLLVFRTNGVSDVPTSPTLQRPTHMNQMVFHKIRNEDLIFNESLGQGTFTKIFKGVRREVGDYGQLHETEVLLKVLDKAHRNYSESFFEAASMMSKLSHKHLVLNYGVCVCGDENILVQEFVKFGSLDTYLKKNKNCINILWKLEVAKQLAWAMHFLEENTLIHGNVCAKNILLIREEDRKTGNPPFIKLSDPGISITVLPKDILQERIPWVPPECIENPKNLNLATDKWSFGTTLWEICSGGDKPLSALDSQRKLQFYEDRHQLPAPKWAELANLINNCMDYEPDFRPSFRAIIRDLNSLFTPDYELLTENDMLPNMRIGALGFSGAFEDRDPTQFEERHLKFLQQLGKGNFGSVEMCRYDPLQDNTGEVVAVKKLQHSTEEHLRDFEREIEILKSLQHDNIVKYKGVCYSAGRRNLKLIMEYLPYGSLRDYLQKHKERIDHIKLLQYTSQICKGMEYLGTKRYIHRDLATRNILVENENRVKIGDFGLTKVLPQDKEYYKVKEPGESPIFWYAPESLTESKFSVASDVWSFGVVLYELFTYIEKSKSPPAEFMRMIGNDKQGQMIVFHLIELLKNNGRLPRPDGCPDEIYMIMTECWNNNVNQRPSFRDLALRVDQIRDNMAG
# Experiment: phosphorylation enrichment, bacterial display (enrichment ratio); higher = better substrate or ligand; peptides without Tyr show the background
Each entry gets False if its phosphorylation enrichment stays under 0.8, and True if its phosphorylation enrichment is 0.8 or above.

{"Macromolecule sequence": "EKIANYKEGTF [CLRN1_Y171_YF]", "Assigned label": "False"}
{"Macromolecule sequence": "GQKTLYSFFSP [UNG_Y8]", "Assigned label": "True"}
{"Macromolecule sequence": "EWQQTYTYDSG [JUP_Y20]", "Assigned label": "True"}
{"Macromolecule sequence": "FVPSNYVAEDR [FRK_Y104_I100V_YF]", "Assigned label": "False"}
{"Macromolecule sequence": "QYRFIYMAVQH [PTPN11_Y515]", "Assigned label": "True"}

Check the entry SETDDYAEIIV [PTK2_Y397_D402V] : does phosphorylation enrichment equal or exceed 0.8?
True

Threshold query (phosphorylation enrichment >= 0.8) on RKKLFYKADGE [SERPINC1_Y272_E269K]
False

Exam item: decide whether the reported phosphorylation enrichment for SKNSKYNAEST [PSEN1_Y315] is at least 0.8.
False

Does IFHLSYLHNCE [PDE6B_Y227_YF] have a reported phosphorylation enrichment of at least 0.8?
True

Exam item: decide whether the reported phosphorylation enrichment for FRSSLYLLMET [MYO5C_Y633] is at least 0.8.
True

Test whether the sequence HGDDDYDDPEL [CLNK_Y69_S65G] records phosphorylation enrichment of 0.8 or higher.
True

====

# Target under test: EPHB2 (UniProt P29323)
# Sequence (P29323 whole entry, looked up): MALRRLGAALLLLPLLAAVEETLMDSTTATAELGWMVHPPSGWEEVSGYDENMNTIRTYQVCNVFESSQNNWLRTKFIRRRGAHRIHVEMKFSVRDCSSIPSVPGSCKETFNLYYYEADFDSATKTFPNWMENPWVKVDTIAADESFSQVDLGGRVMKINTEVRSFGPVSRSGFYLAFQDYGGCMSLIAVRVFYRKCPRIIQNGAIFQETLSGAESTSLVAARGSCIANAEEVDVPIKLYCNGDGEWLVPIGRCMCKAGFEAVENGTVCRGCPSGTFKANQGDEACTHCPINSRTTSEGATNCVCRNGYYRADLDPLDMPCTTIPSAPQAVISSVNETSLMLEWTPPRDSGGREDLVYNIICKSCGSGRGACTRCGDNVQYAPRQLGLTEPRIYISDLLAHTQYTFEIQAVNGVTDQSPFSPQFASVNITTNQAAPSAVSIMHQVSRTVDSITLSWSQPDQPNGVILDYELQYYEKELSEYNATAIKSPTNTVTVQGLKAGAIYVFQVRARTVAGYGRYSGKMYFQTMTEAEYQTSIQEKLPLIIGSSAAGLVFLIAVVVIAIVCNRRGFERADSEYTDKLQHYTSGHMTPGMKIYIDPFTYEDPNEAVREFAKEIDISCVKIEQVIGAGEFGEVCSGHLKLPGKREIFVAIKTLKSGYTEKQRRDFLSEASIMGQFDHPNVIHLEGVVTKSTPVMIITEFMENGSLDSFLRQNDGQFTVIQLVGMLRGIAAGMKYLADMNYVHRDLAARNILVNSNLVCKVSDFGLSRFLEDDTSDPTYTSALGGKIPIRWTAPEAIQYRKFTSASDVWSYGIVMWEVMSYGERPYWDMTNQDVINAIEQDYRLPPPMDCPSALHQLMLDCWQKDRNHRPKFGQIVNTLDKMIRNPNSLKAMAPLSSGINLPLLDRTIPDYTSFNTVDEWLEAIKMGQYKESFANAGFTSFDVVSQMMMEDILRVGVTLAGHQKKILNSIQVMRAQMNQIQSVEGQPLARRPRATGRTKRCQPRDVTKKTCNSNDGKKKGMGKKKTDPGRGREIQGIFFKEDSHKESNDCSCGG
# Experiment: phosphorylation enrichment, bacterial display (enrichment ratio); higher = better substrate or ligand; peptides without Tyr show the background
Experimental endpoint: phosphorylation enrichment
Output spec: single numeric token, no unit.

Some solved entries appear below for comparison.
{"Macromolecule sequence": "SKQGKYLNWDA [ATM_Y54]", "Target under test": "EPHB2 (UniProt P29323)", "phosphorylation enrichment": 0.507}
{"Macromolecule sequence": "RGEKQYLATPL [ALOX12_Y295_A298T]", "Target under test": "EPHB2 (UniProt P29323)", "phosphorylation enrichment": 0.342}
{"Macromolecule sequence": "EDGRLYAVKRS [PKMYT1_Y136]", "Target under test": "EPHB2 (UniProt P29323)", "phosphorylation enrichment": 0.496}
{"Macromolecule sequence": "TQRPFYKGGGG [TYROBP_Y112_YF]", "Target under test": "EPHB2 (UniProt P29323)", "phosphorylation enrichment": 0.31}
{"Macromolecule sequence": "VMTVDYSKTVV [SETD2_Y770]", "Target under test": "EPHB2 (UniProt P29323)", "phosphorylation enrichment": 0.417}

Consider the sequence shown here: YFCRWYRNRKS [EREG_Y144] What is its recorded phosphorylation enrichment?
0.572

Request the reported phosphorylation enrichment associated with EQWRAYLEGTC [HLA-C_Y183_L180W]
0.588

Which phosphorylation enrichment value is on record for GRQGIYKENER [GPR143_Y231_T232K] ?
0.375

Requested field: phosphorylation enrichment. Item: KDHPDYKFPPR [SOX10_Y171_Q174P_YF]
0.444

Bench note: what phosphorylation enrichment did KWRGQYDVAIK [BTK_Y425] show?
0.642

Using the record for ERCAQYKKDGA [ALDOA_Y138] , report its phosphorylation enrichment.
0.487

// phosphorylation enrichment lookup, key: VDSTEYEVASQ [SLC7A7_Y7]
0.646
